Assign melting point to each entry below.

Example cases with answers are listed next.
COMPOUND	melting point
COc1cccc(C=C2SC(=O)NC2=O)c1 [Compound 16]	217 to 220 °C
O=C1NC(=O)C(=Cc2ccc(Br)cc2)S1 [Compound 9]	150 to 152 °C
CCN(CC)c1ccc(/C=C2/SC(=O)NC2=O)cc1 [Compound 8]	158 to 160 °C
COc1ccccc1C=C1SC(=O)NC1=O [Compound 15]	147 to 150 °C

Below is a list of compounds. For each, state its recorded melting point.
1. O=C1NC(=O)C(=Cc2cccc([N+](=O)[O-])c2)S1 [Compound 7]
2. O=C1NC(=O)/C(=C\c2cccc(Cl)c2)S1 [Compound 14]
3. O=Cc1ccc(C=C2SC(=O)NC2=O)cc1 [Compound 21]
4. CN(C)c1ccc(C=C2SC(=O)NC2=O)cc1 [Compound 6]

110 to 113 °C
137 to 140 °C
147 to 150 °C
147 to 150 °C

Request the reported melting point associated with COc1cc(C=C2SC(=O)NC2=O)cc(OC)c1OC [Compound 10]
210 to 213 °C

----------
experiment: Antioxidant activity: free radical scavenging method by DPPH assay; details: 25 μg/ml, 30 min, 517 nm
Answer not satisfied if % inhibition (DPPH), 25 μg/ml is under 30%, and satisfied if it is 30% or more.

Examples with answers:
MOLECULE	ANSWER LABEL
O=C1NC(=O)C(=Cc2cccc([N+](=O)[O-])c2)S1	not satisfied
O=C1NC(=O)C(=Cc2ccc([N+](=O)[O-])cc2)S1	satisfied
O=C1O[C@H]([C@@H](O)CO)C(O)=C1O [Ascorbic acid, ascorbic acid, reference compound]	satisfied
COc1ccc(C=C2SC(=O)NC2=O)cc1	not satisfied
O=C1NC(=O)C(=Cc2ccc(Cl)cc2Cl)S1	satisfied

Answer whether % inhibition (DPPH), 25 μg/ml of O=C1NC(=O)C(=Cc2ccccc2O)S1 is greater than or equal to 30%.
satisfied

Answer whether % inhibition (DPPH), 25 μg/ml of COc1ccc(C=C2SC(=O)NC2=O)cc1OC is greater than or equal to 30%.
not satisfied

Answer whether % inhibition (DPPH), 25 μg/ml of O=C1NC(=O)C(=C/C=C/c2ccccc2)S1 is greater than or equal to 30%.
not satisfied

Answer whether % inhibition (DPPH), 25 μg/ml of CCOc1cc(C=C2SC(=O)NC2=O)ccc1O is greater than or equal to 30%.
not satisfied

----------
test: Antioxidant activity: free radical scavenging method by DPPH assay; settings: 75 μg/ml, 30 min, 517 nm
Answer F if % inhibition (DPPH), 75 μg/ml is under 70%, and T if it is 70% or more.

Examples with answers:
MOLECULE	ANSWER LABEL
COc1ccc(C=C2SC(=O)NC2=O)cc1 [Compound 12]	T
O=Cc1ccc(C=C2SC(=O)NC2=O)cc1 [Compound 21]	T

Answer whether % inhibition (DPPH), 75 μg/ml of CN(C)c1ccc(C=C2SC(=O)NC2=O)cc1 [Compound 6] is greater than or equal to 70%.
F

Answer whether % inhibition (DPPH), 75 μg/ml of COc1ccc(C=C2SC(=O)NC2=O)cc1OC [Compound 19] is greater than or equal to 70%.
T

Answer whether % inhibition (DPPH), 75 μg/ml of COc1cc(C=C2SC(=O)NC2=O)cc(OC)c1OC [Compound 10] is greater than or equal to 70%.
F

Answer whether % inhibition (DPPH), 75 μg/ml of COc1ccccc1C=C1SC(=O)NC1=O [Compound 15] is greater than or equal to 70%.
T

Answer whether % inhibition (DPPH), 75 μg/ml of O=C1O[C@H]([C@@H](O)CO)C(O)=C1O [Ascorbic acid, ascorbic acid, reference compound] is greater than or equal to 70%.
T
